Target or test system: T1, human Angiopoietin-2 (human, UniProt O15123 19-496)
T1 sequence: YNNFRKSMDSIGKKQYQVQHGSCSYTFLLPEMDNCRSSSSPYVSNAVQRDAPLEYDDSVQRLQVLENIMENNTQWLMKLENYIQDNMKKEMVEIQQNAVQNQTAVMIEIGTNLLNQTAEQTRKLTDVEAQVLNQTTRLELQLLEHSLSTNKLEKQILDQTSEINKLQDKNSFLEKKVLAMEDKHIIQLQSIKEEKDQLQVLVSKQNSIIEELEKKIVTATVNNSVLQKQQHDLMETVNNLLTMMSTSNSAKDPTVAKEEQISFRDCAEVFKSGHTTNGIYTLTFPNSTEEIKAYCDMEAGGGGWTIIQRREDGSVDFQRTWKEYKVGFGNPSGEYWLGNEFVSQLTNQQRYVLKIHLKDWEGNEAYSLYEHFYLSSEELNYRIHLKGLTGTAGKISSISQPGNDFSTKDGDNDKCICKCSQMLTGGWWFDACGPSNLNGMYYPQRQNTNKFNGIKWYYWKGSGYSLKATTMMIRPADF
Protocol details: cell-based or functional assay
Measured quantity: EC50, inhibition of Ang-2-induced Tie2 phosphorylation (HEK293F/Tie2, ELISA) (µg/mL)

Binder	Assay value
mAb 3.19.3 (antibody, V domains shown, Human hybridoma IgG (XenoMouse); also called x3.19) VH: QVQLVESGGGVVQPGRSLRLSCAASGFTFTNYGMHWGRQAPGKGLEWVAVISHDGNNKYYVDSVKGRFTISRDNSKNTLYLQMNSLRAEDTAVYYCAREGIDFWSGLNWFDPWGQGTLVTVSS VL: EIVLTQSPGTLSLSPGERATLSCRASQSITGSYLAWYQQKPGQAPRLLICGASSWATGIPDRFSGSGSGTDFTLTISRLEPEDFAVYYCQQYSSSPITFGQGTRLEIKR	0.006
mAb 3.3.2 (antibody, V domains shown, Human hybridoma IgG (XenoMouse); also called 3.3.1; x3.3) VH: EVQLVESGGGLVQPGGSLRLSCAVSGFTFSSYWMSWVRQAPGKGLEWVANIKQDGSEKYYVDSVKGRFTISRDNAKNSLYLQMNSLRAEDTAVYYCARDQGIAVAGPFDYWGQGTLVTVSS VL: EIVMTQSPATLSVSPGERATLSCRASQTVSSDLAWYQQKPGQAPRLLIYGASIRATGIPARFSGSGSGTEFTLTISSLQSEDFAVYSCQQYYNWWTFGQGTKVEIKR	0.046
mAb 5.88.3 (antibody, V domains shown, Human hybridoma IgG (XenoMouse); also called x5.88) VH: EVQMVESGGGLVQPGGSLRLSCAASGFTLRSYWMSWVRQAPGKGLEWVANIKEDGSEKYHVDSVKGRFTISRDNAENSLFLQMSSLRAEDTAVYYCARDMEASAGLFDYWGQGTLVTVSS VL: EIVMTQSPATLSVSPGERAILSCRASQSISSNLAWYQQKPGQAPRLLIYGASTRATGIPARFSGSGSGTEFTLTISSLQSEDFAVYYCQQYNYWWTFGQGTKVEIKR	0.016
mAb 3.31.2 (antibody, V domains shown, Human hybridoma IgG (XenoMouse); also called x3.31) VH: EVQLVESGGGLVQPGGSLRLSCAASGFTFSSYWMSWVRQAPGKGLEWVANIKQDGSDKYYVDSVKGRFTISRDNAKNSLYLRMNSLRAEDTAVFYCARDMGSGWFDYWGQGTLVTVSS VL: EVVMTQSPATLSVSPGERATLSCRASQSVGSNLAWYQQKPGQAPRLLIYGASTRATGIPARFSGSGSGTEFTLTISSLQSEDFAVYCCQQYNHWWTFGQGTKVEIKR	0.043
mAb 5.86.1 (antibody, V domains shown, Human hybridoma IgG (XenoMouse); also called x5.86) VH: QVQLVQSGAEVKKPGASVKVSCKASGYTFTGYHMYWVRQAPGQGLEWLGWINPNSGGTNYAQKFQGRVTMTRDTSISTAYMELSRLRSDDTAVYYCVRDQGIAAAGPFDYWCQGTLVTVSS VL: DIRMTQSPSSLSASVGDRVTITCRASQRISTYLNWYQQKPGKAPKFLIYAASSLQSGVPSRFSGSGSGTDFTLTISSLQPEDFATYYCQQSYTTPFTFGPGTKVDIKR	0.008
